Kindly supply the reported selectivity ratio values for the records listed here.
assay: Selectivity index, ratio of EC50 for rat L6 cells to EC50 for Trypanosoma brucei rhodesiense STIB900; assay type: toxicity, cell-based; conditions: L6 cells, read-out: Ratio EC50

structure as smiles	meas value
COc1ccccc1[P+](Cc1ccc(C(=O)c2ccc(C[P+](c3ccccc3OC)(c3ccccc3OC)c3ccccc3OC)cc2)cc1)(c1ccccc1OC)c1ccccc1OC.[Br-].[Br-]	45

// for each compound in input: emit selectivity ratio
1. Cc1ccc([P+](Cc2ccc(CCCc3ccc(C[P+](c4ccc(C)cc4)(c4ccc(C)cc4)c4ccc(C)cc4)cc3)cc2)(c2ccc(C)cc2)c2ccc(C)cc2)cc1.[Br-].[Br-]
2. CCCCCC[P+](CCCCCC)(CCCCCC)Cc1ccc(Oc2ccc(C[P+](CCCCCC)(CCCCCC)CCCCCC)cc2)cc1.[Br-].[Br-]
3. COc1ccc([P+](Cc2ccc(C(=O)c3ccc(C[P+](c4ccc(OC)cc4)(c4ccc(OC)cc4)c4ccc(OC)cc4)cc3)cc2)(c2ccc(OC)cc2)c2ccc(OC)cc2)cc1.[Br-].[Br-]
4. Cc1ccc([P+](Cc2ccc(S(=O)(=O)c3ccc(C[P+](c4ccc(C)cc4)(c4ccc(C)cc4)c4ccc(C)cc4)cc3)cc2)(c2ccc(C)cc2)c2ccc(C)cc2)cc1.[Br-].[Br-]
5. COc1ccccc1[P+](Cc1ccc(Cc2ccc(C[P+](c3ccccc3OC)(c3ccccc3OC)c3ccccc3OC)cc2)cc1)(c1ccccc1OC)c1ccccc1OC.[Br-].[Br-]

1. 22
2. 9
3. 40
4. 127
5. 5

Give selectivity ratio for all compounds that follow.
1. Cc1ccc([P+](CCc2ccc(CCCc3ccc(CC[P+](c4ccc(C)cc4)(c4ccc(C)cc4)c4ccc(C)cc4)cc3)cc2)(c2ccc(C)cc2)c2ccc(C)cc2)cc1.[Cl-].[Cl-]
2. C[P+](C)(Cc1ccc(CCCc2ccc(C[P+](C)(C)c3ccccc3)cc2)cc1)c1ccccc1.[Br-].[Br-]
3. Cc1cccc([P+](Cc2ccc(Oc3ccc(C[P+](c4cccc(C)c4)(c4cccc(C)c4)c4cccc(C)c4)cc3)cc2)(c2cccc(C)c2)c2cccc(C)c2)c1.[Br-].[Br-]
4. O=C(c1ccc(C[P+](Cc2ccccc2)(c2ccccc2)c2ccccc2)cc1)c1ccc(C[P+](Cc2ccccc2)(c2ccccc2)c2ccccc2)cc1.[Br-].[Br-]
5. Cc1ccc(C[P+](c2ccccc2)(c2ccccc2)c2ccccc2)cc1.[Cl-]

1. 8.8
2. 49
3. 1.9
4. 67
5. 48

Return reported selectivity ratio; argument: `CC(C)[P+](Cc1ccc(Cc2ccc(C[P+](c3ccccc3)(c3ccccc3)C(C)C)cc2)cc1)(c1ccccc1)c1ccccc1.[Br-].[Br-]`
6.4

* * *

experiment: Selectivity index, ratio of EC50 for rat L6 cells to EC50 for Trypanosoma brucei rhodesiense STIB900; format: toxicity, cell-based; conditions: L6 cells, read-out: Ratio EC50
Please note: true (1) applies when selectivity ratio is 20 or greater, and false (0) applies otherwise.

Example entries begin here.
structure as smiles	group label
Cc1ccc([P+](Cc2ccc(Oc3ccc(C[P+](c4ccc(C)cc4)(c4ccc(C)cc4)c4ccc(C)cc4)cc3)cc2)(c2ccc(C)cc2)c2ccc(C)cc2)cc1.[Br-].[Br-]	false (0)
CCCC[P+](CCCC)(CCCC)Cc1ccc(C(=O)c2ccc(C[P+](CCCC)(CCCC)CCCC)cc2)cc1.[Br-].[Br-]	true (1)
CCCCCC[P+](CCCCCC)(CCCCCC)Cc1ccc(C(=O)c2ccccc2)cc1.[Br-]	false (0)

Is the recorded value of selectivity ratio equal to or greater than 20 for this molecule? `Cc1cccc([P+](Cc2ccc(C(=O)c3ccccc3)cc2)(c2cccc(C)c2)c2cccc(C)c2)c1.[Br-]`
false (0)

Is reported selectivity ratio greater than or equal to 20 here: `[Br-].[Br-].c1ccc2c([P+](Cc3ccc(Oc4ccc(C[P+](c5cccc6ccccc56)(c5cccc6ccccc56)c5cccc6ccccc56)cc4)cc3)(c3cccc4ccccc34)c3cccc4ccccc34)cccc2c1`
false (0)

Check if selectivity ratio >= 20 (inclusive). Item: `O=C(c1ccc(C[P+](c2ccccc2)(c2ccccc2)C2CCCCC2)cc1)c1ccc(C[P+](c2ccccc2)(c2ccccc2)C2CCCCC2)cc1.[Br-].[Br-]`
true (1)

* * *

Assign selectivity ratio to each entry below.
assay: Selectivity index, ratio of EC50 for rat L6 cells to EC50 for Trypanosoma brucei rhodesiense STIB900; type: toxicity, cell-based; conditions: L6 cells, read-out: Ratio EC50
One number for each entry.

Worked set:
> print(dat)
                        structure.as.smiles  meas.value
1  CCCCC[P+](CCCCC)(CCCCC)Cc1ccc(C(=O)c2ccc(C[P+](CCCCC)(CCCCC)CCCCC)cc2)cc1.[Br-].[Br-]          30
2  C[P+](C)(Cc1ccc(CCc2ccc(C[P+](C)(C)c3ccccc3)cc2)cc1)c1ccccc1.[Br-].[Br-]          40
3  CCC[P+](Cc1ccc(Oc2ccc(C[P+](CCC)(c3ccccc3)c3ccccc3)cc2)cc1)(c1ccccc1)c1ccccc1.[Br-].[Br-]           5

From here, focus on the item given below.
Consider the compound `Cc1ccc([P+](Cc2ccc(C(=O)c3ccc(C[P+](c4ccccc4)(c4ccccc4)c4ccc(C)cc4)cc3)cc2)(c2ccccc2)c2ccccc2)cc1.[Br-].[Br-]` and give its measured selectivity ratio.
62

* * *

test: Selectivity index, ratio of EC50 for human HEK cells to EC50 for wild type Trypanosoma brucei brucei Lister 427; assay type: toxicity, cell-based, HEK293; conditions: HEK cells, read-out: Ratio EC50
Simple rule here: selectivity ratio less than 600 is fulfilled, otherwise not fulfilled.

The examples below pair each entry with its known result.
structure as smiles	group label
Cc1ccccc1[P+](Cc1ccc(C(=O)c2ccc(C[P+](c3ccccc3)(c3ccccc3)c3ccccc3C)cc2)cc1)(c1ccccc1)c1ccccc1.[Br-].[Br-]	not fulfilled
CCCC[P+](CCCC)(CCCC)Cc1ccc(C(=O)c2ccc(C[P+](CCCC)(CCCC)CCCC)cc2)cc1.[Br-].[Br-]	not fulfilled
COc1ccccc1[P+](Cc1ccc(Oc2ccc(C[P+](c3ccccc3OC)(c3ccccc3OC)c3ccccc3OC)cc2)cc1)(c1ccccc1OC)c1ccccc1OC.[Br-].[Br-]	not fulfilled
CCCCCC[P+](CCCCCC)(CCCCCC)Cc1ccc(C(=O)c2ccc(C[P+](CCCCCC)(CCCCCC)CCCCCC)cc2)cc1.[Br-].[Br-]	fulfilled

Is it true that selectivity ratio reported for `Cc1ccc([P+](Cc2ccc(C(=O)c3ccccc3)cc2)(c2ccc(C)cc2)c2ccc(C)cc2)cc1.[Br-]` is less than 600?
fulfilled

Given `CCCCC[P+](CCCCC)(CCCCC)Cc1ccc(C(=O)c2ccc(C[P+](CCCCC)(CCCCC)CCCCC)cc2)cc1.[Br-].[Br-]` , is recorded selectivity ratio strictly lower than 600?
fulfilled

Is selectivity ratio of `CCCCCC[P+](CCCCCC)(CCCCCC)Cc1ccc(Cc2ccc(C[P+](CCCCCC)(CCCCCC)CCCCCC)cc2)cc1.[Br-].[Br-]` strictly below 600?
fulfilled

Quick check: selectivity ratio of `FC(F)(F)c1ccc([P+](Cc2ccc(Cc3ccc(C[P+](c4ccc(C(F)(F)F)cc4)(c4ccc(C(F)(F)F)cc4)c4ccc(C(F)(F)F)cc4)cc3)cc2)(c2ccc(C(F)(F)F)cc2)c2ccc(C(F)(F)F)cc2)cc1.[Br-].[Br-]` under 600?
fulfilled

Is it true that selectivity ratio reported for `Cc1ccc([P+](CCc2ccc(CCc3ccc(CC[P+](c4ccc(C)cc4)(c4ccc(C)cc4)c4ccc(C)cc4)cc3)cc2)(c2ccc(C)cc2)c2ccc(C)cc2)cc1.[Cl-].[Cl-]` is less than 600?
fulfilled

Field: below-cutoff. Rule: recorded selectivity ratio strictly less than 600. Subject: `CCCCCCCC[P+](CCCCCCCC)(CCCCCCCC)Cc1ccc(C(=O)c2ccc(C[P+](CCCCCCCC)(CCCCCCCC)CCCCCCCC)cc2)cc1.[Br-].[Br-]`
not fulfilled

Please check: selectivity ratio for `CC(=O)N(c1ccc(C[P+](c2ccc(C)cc2)(c2ccc(C)cc2)c2ccc(C)cc2)cc1)c1ccc(C[P+](c2ccc(C)cc2)(c2ccc(C)cc2)c2ccc(C)cc2)cc1.[Br-].[Br-]` , strictly under 600 or not?
not fulfilled

* * *

Task for the reader: assign each of the following molecules its reported Ratio EC50.
test: Selectivity index, ratio of EC50 for human HEK cells to EC50 for wild type Trypanosoma brucei brucei Lister 427; type: toxicity, cell-based, HEK293; conditions: hek293
One number for each entry.

structure as smiles	Ratio EC50
Cc1ccc([P+](Cc2ccc(C(=O)c3ccc(C[P+](c4ccc(C)cc4)(c4ccc(C)cc4)c4ccc(C)cc4)cc3)cc2)(c2ccc(C)cc2)c2ccc(C)cc2)cc1.[Cl-].[Cl-]	254
Cc1ccc([P+](Cc2ccc(C(=O)c3ccc(C[P+](c4ccc(C)cc4)(c4ccc(C)cc4)c4ccc(C)cc4)cc3)cc2)(c2ccc(C)cc2)c2ccc(C)cc2)cc1.[Br-].[Br-]	1266
Cc1ccc([P+](Cc2ccc(CCCc3ccc(C[P+](c4ccc(C)cc4)(c4ccc(C)cc4)c4ccc(C)cc4)cc3)cc2)(c2ccc(C)cc2)c2ccc(C)cc2)cc1.[Cl-].[Cl-]	127

Please go through the list and note Ratio EC50 for each molecule.
1. Cc1ccc([P+](Cc2ccc(CCCc3ccc(C[P+](c4ccc(C)cc4)(c4ccc(C)cc4)c4ccc(C)cc4)cc3)cc2)(c2ccc(C)cc2)c2ccc(C)cc2)cc1.[Br-].[Br-]
2. Cc1ccc([P+](Cc2ccc(CCc3ccc(C[P+](c4ccc(C)cc4)(c4ccc(C)cc4)c4ccc(C)cc4)cc3)cc2)(c2ccc(C)cc2)c2ccc(C)cc2)cc1.[Cl-].[Cl-]

[897, 404]
